# assayProcedure: Solubility of crystal forms in water and simulated gastric-intestinal fluid
# Type: physicochemical
# assayConditions: thermodynamic from solid; FeSSIF (simulated intestinal fluid, fed), 25° C., equilibrated 18 hours; read-out: Average solubility
valueType: solubility at 18 h (µg/mL)
Answers are plain numbers, in µg/mL.

[ask] Identify measured solubility at 18 h corresponding to O=C(C1CCCCC1)N1CC(=O)N2CCc3ccccc3C2C1 (racemic) [Praziquantel crystal form, praziquantel]
[reply] 313

* * *

# assayProcedure: Solubility of crystal forms in water and simulated gastric-intestinal fluid
# Format: physicochemical
# assayConditions: thermodynamic from solid; Water, 25° C., equilibrated 18 hours; read-out: Average solubility
valueType: solubility at 18 h (µg/mL)
One number for each entry, in µg/mL.

[ask] Identify measured solubility at 18 h corresponding to O=C(C1CCCCC1)N1CC(=O)N2CCc3ccccc3C2C1 (racemic) [Praziquantel crystal form, praziquantel]
[reply] 199
